Provide the reported B-score functional assay of each item.
# tested-on: human NTCP (Homo sapiens, UniProt Q14973)
# assay-remarks: Screening taurocholate uptake assay (96-well, [14C]taurocholate, 10 µM drug)
# assay-conditions: Prestwick library screen, taurocholate uptake, 10 µM drug
Where a name gives a salt, the structure may show the parent alone.

// below: answered compounds
[
  {
    "compound": "COc1ccc2c(c1)c(CC(=O)OCC(=O)O)c(C)n2C(=O)c1ccc(Cl)cc1",
    "B-score functional assay": 0.011
  },
  {
    "compound": "CCCCC[C@H](O)/C=C/[C@H]1[C@H](O)CC(=O)[C@@H]1CCCCCCC(=O)O",
    "B-score functional assay": 0.966
  },
  {
    "compound": "COc1ccc(OC)c(C(O)CNC(=O)CN)c1 (centres unmarked) [Midodrine hydrochloride]",
    "B-score functional assay": -0.28
  }
]

Below are 2 compounds. Give each one its B-score functional assay.
1. Clc1cnccn1
2. NCCCNCCSP(=O)(O)O

1.648
0.006

Below are 3 compounds. Give each one its B-score functional assay.
1. CCC(=O)O[C@]1(C(=O)SCF)[C@H](C)C[C@H]2[C@@H]3C[C@H](F)C4=CC(=O)C=C[C@]4(C)[C@@]3(F)[C@@H](O)C[C@@]21C [Fluticasone propionate]
2. CC(=O)OC[C@H]1O[C@@H]([S-])[C@H](OC(C)=O)[C@@H](OC(C)=O)[C@@H]1OC(C)=O.CCP(CC)CC.[Au+]
3. CCN1CCCC1CNC(=O)c1cc(S(N)(=O)=O)ccc1OC (centres unmarked) [Sulpiride]

1. 0.021
2. 0.729
3. 0.071

###

# tested-on: human NTCP (Homo sapiens)
# assay-remarks: Screening taurocholate uptake assay (96-well, [14C]taurocholate, 10 µM drug)
# assay-conditions: screening taurocholate uptake, 10 µM drug
# B-score functional assay binned as low (below -0.6), middle (-0.6 to below 0.02), high (0.02 or more)

Bin? Oc1ccc(OCc2ccccc2)cc1 [Monobenzone]
middle

Bin? Nc1ccc(S(=O)(=O)Nc2ccc(Cl)nn2)cc1 [Sulfachloropyridazine]
high

Bin? COC1=CC(=O)C[C@@H](C)[C@]12Oc1c(Cl)c(OC)cc(OC)c1C2=O [Griseofulvin]
low

Bin? COc1ccc(C(=O)CC(=O)c2ccc(C(C)(C)C)cc2)cc1 [Avobenzone]
low

###

# tested-on: human NTCP (Homo sapiens, UniProt Q14973)
# assay-remarks: Screening taurocholate uptake assay (96-well, [14C]taurocholate, 10 µM drug)
# assay-conditions: combined ranking from functional and binding screening assays
attribute-measured: Ranking score

// below: answered compounds
[
  {
    "compound": "CC(C)C[C@H]1C(=O)N2CCC[C@H]2[C@]2(O)O[C@](NC(=O)[C@@H]3C=C4c5cccc6[nH]c(Br)c(c56)C[C@H]4N(C)C3)(C(C)C)C(=O)N12.CS(=O)(=O)O [Bromocryptine mesylate]",
    "tested-on": "human NTCP (Homo sapiens, UniProt Q14973)",
    "attribute-measured": "Ranking score",
    "reported-measurement": 349.571
  },
  {
    "compound": "CC1=C(C(=O)O)N2C(=O)[C@@H](NC(=O)[C@H](N)c3ccc(O)cc3)[C@H]2SC1",
    "tested-on": "human NTCP (Homo sapiens, UniProt Q14973)",
    "attribute-measured": "Ranking score",
    "reported-measurement": 439.805
  }
]

O=C1CCc2cc(OCCCCc3nnnn3C3CCCCC3)ccc2N1 yielded Ranking score of 446.637

###

Provide the reported B-score functional assay of each item.
# tested-on: human NTCP (Homo sapiens)
# Sequence (Q14973 1-349): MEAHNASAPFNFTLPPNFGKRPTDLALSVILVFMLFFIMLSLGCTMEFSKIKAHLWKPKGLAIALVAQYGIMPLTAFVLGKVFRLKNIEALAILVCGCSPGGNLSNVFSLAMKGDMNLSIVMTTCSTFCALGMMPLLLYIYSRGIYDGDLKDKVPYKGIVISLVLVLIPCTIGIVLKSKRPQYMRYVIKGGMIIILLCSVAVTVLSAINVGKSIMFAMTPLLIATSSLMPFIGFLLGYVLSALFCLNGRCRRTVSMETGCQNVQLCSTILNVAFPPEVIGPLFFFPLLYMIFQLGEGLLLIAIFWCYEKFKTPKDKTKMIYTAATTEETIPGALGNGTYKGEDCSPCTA
# assay-remarks: Screening taurocholate uptake assay (96-well, [14C]taurocholate, 10 µM drug)
# assay-conditions: screen, 10 µM drug, taurocholate uptake
Structures can show the parent of a compound that is named as a salt.
One number for each entry.

[
  {
    "compound": "CCOc1ccc2c(c1)C(C)=CC(C)(C)N2 [Ethoxyquin]",
    "attribute-measured": "B-score functional assay",
    "reported-measurement": 0.194
  },
  {
    "compound": "Cc1cc(C(C)(C)C)cc(C)c1CC1=NCCN1 [Xylometazoline hydrochloride]",
    "attribute-measured": "B-score functional assay",
    "reported-measurement": -0.462
  },
  {
    "compound": "Nc1[nH]c(=O)ncc1F [Flucytosine]",
    "attribute-measured": "B-score functional assay",
    "reported-measurement": -1.554
  },
  {
    "compound": "CC(=O)N[C@@H](CC(=O)N[C@@H](CCC(=O)O)C(=O)O)C(=O)O [Spaglumic acid]",
    "attribute-measured": "B-score functional assay",
    "reported-measurement": -0.043
  },
  {
    "compound": "C[C@]12CC[C@H](O)C[C@H]1CC[C@@H]1[C@@H]2C[C@@H](O)[C@]2(C)[C@@H](C3=CC(=O)OC3)CC[C@]12O [Digoxigenin]",
    "attribute-measured": "B-score functional assay",
    "reported-measurement": -0.468
  },
  {
    "compound": "CCC(=O)[C@@]1(C)[C@H](C)C[C@H]2[C@@H]3CCC4=CC(=O)C=C[C@]4(C)[C@H]3[C@@H](O)C[C@@]21C [Rimexolone]",
    "attribute-measured": "B-score functional assay",
    "reported-measurement": -0.597
  }
]

Below are 7 compounds. Give each one its B-score functional assay.
1. COc1ccc(CN2CCN(C(c3ccc(F)cc3)c3ccc(F)cc3)CC2)c(OC)c1OC.Cl.Cl [Lomerizine hydrochloride]
2. CCN(CC)CCCC(C)Nc1c2ccc(Cl)cc2nc2ccc(OC)cc12.Cl.Cl (stereo not shown) [Quinacrine dihydrochloride hydrate]
3. CC(=O)OCC(=O)[C@@]1(O)CC[C@H]2[C@@H]3CCC4=CC(=O)CC[C@]4(C)[C@@]3(F)[C@@H](O)C[C@@]21C [Fludrocortisone acetate]
4. COC(=O)[C@H](c1ccccc1Cl)N1CCc2sccc2C1 [Clopidogrel]
5. O=C(c1ccccc1)c1ccc2n1CCC2C(=O)O (stereo not shown) [Ketorolac tromethamine]
6. COc1ccc2c(c1)C(=O)N(CCc1ccc(S(=O)(=O)NC(=O)NC3CCCCC3)cc1)C(=O)C2(C)C [Gliquidone]
7. COc1ccc2cc(CCC(C)=O)ccc2c1 [Nabumetone]

-0.214
-2.093
0.011
0.915
-0.269
-2.316
-0.236

###

# tested-on: human NTCP (Homo sapiens, UniProt Q14973)
# Sequence (Q14973 1-349): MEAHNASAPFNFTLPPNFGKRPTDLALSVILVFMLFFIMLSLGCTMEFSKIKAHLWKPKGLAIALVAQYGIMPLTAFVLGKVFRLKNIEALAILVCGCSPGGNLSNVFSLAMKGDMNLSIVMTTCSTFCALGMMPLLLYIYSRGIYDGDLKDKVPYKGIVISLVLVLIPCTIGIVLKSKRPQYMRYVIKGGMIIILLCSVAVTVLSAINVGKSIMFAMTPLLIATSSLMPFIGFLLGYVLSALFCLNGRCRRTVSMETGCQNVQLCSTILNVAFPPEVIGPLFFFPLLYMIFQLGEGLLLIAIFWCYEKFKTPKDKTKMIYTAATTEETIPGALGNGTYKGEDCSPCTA
# assay-remarks: Screening fluorescent competitive Myrcludex B-FITC binding assay (96-well, 10 µM drug)
# assay-conditions: Prestwick library screen, Myrcludex B-FITC binding, 10 µM drug
So basically: B-score binding assay at -0.007 or higher? That is fulfilled. Lower than -0.007? That is not fulfilled.

[
  {
    "compound": "Clc1ccc(C(Cn2ccnc2)OCc2csc3c(Cl)cccc23)c(Cl)c1 (stereo not shown) [Sertaconazole nitrate]",
    "discrete-label": "fulfilled"
  }
]

Could you verify whether the entry NC12CC3CC(CC(C3)C1)C2.O=C(O)/C=C/C(=O)O [Adamantamine fumarate] shows B-score binding assay of no less than -0.007?
fulfilled

Could you verify whether the entry COC(=O)[C@H]1[C@H]2C[C@@H]3c4[nH]c5cc(OC)ccc5c4CCN3C[C@H]2C[C@@H](OC(=O)c2cc(OC)c(OC)c(OC)c2)[C@@H]1OC shows B-score binding assay of no less than -0.007?
fulfilled

Could you verify whether the entry C#C[C@]1(O)CC[C@H]2[C@@H]3CCC4=CC(=O)CC[C@]4(C)[C@H]3CC[C@@]21C shows B-score binding assay of no less than -0.007?
fulfilled

Could you verify whether the entry CC[C@@]1(O)C(=O)OCc2c1cc1n(c2=O)Cc2cc3c(CN(C)C)c(O)ccc3nc2-1 shows B-score binding assay of no less than -0.007?
fulfilled

Could you verify whether the entry Nc1cc(C(Cl)=C(Cl)Cl)c(S(N)(=O)=O)cc1S(N)(=O)=O shows B-score binding assay of no less than -0.007?
not fulfilled

Just for reference, paper PMC5681660 is where these values come from.
